Study System: mTOR (Homo sapiens, UniProt P42345)
Construct: FLAG; made in house
Sequence (P42345 1362-2549): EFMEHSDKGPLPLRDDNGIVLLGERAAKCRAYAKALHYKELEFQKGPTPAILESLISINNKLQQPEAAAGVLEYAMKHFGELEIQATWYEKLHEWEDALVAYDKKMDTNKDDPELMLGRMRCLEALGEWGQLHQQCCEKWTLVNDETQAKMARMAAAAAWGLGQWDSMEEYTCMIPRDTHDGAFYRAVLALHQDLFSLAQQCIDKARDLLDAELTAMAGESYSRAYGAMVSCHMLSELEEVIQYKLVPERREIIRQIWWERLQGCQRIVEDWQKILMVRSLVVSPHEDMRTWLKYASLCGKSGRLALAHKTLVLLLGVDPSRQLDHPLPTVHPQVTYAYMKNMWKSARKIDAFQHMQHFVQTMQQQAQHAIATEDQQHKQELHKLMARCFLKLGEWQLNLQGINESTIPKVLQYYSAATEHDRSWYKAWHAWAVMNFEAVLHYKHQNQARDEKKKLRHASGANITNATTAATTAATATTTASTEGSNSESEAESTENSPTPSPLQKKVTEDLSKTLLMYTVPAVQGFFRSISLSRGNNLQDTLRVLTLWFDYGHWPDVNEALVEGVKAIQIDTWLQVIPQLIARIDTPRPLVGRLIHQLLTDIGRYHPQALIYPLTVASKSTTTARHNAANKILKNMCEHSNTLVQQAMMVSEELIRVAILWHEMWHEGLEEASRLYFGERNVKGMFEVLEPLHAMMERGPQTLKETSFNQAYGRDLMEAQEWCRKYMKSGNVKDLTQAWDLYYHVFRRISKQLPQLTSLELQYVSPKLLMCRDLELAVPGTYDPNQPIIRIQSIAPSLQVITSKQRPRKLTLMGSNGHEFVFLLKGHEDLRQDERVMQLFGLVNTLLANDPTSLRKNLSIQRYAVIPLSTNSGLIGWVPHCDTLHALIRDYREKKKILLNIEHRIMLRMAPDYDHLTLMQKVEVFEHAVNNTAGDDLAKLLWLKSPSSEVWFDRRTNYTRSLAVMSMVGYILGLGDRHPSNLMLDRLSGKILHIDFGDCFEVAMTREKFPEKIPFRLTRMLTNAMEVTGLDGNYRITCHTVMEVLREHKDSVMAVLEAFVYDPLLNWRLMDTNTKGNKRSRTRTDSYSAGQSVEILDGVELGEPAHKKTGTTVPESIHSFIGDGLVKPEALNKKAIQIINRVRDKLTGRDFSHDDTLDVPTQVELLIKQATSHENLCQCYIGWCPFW
Procedure Text: In Vitro mTOR Kinase Assay (Echo), Test (a)(ii)
Assay type: biochemical
Applied Conditions: table of enzyme assay Test (a)(ii); read-out: Test (a)(ii) IC50
Measurement Name: IC50 (nM)

Supply reported IC50 belonging to this compound: CNC(=O)Nc1ccc(-c2nc(N3CCOC[C@@H]3C)cc(C3(S(=O)(=O)c4ccccc4Cl)CC3)n2)cc1 [Example 76a]
4.07

P: C[C@H]1COCCN1c1cc(C2(S(=O)(=O)c3cc(F)cc(F)c3)CC2)nc(-c2ccc(NC(=O)Nc3ccccn3)cc2)n1 [Example 19b]
Q: O=C(Nc1ccc(-c2nc(N3CCOCC3)cc(C3(S(=O)(=O)c4ccncc4)CC3)n2)cc1)NC1CC1 [Example 36av]
R: CCNC(=O)Nc1ccc(-c2nc(N3CCOC[C@@H]3C)cc(C3(S(=O)(=O)C4CCCCC4)CC3)n2)cc1 [Example 26b]
Please list these in order of increasing IC50. Thank you! Please write the labels in the order that was asked for.
P, R, Q
(P: 1.19 nM, R: 3.9 nM, Q: 9.95 nM)
